Values from patent US6080791A

Tested on: hemagglutinin-mediated hemolysis of human red blood cells
Assay: Hemolysis (HEM) assay
Type: cell-based, C22 influenza virus; human red blood cells
Conditions: unidentified influenza virus, Erythrocyte; log conc -5 (M); read-out: hemolysis % ↓ OD
Record form. Attribute: inhibition at 10 µM. Fill in for each entry.
Numbers only, in %.

O=C(O)C1C=CCC2C(=O)C=CC(=O)C12 (stereo not shown)	13.2

Would you be so kind as to report inhibition at 10 µM for each listed record?
1. O=C1C=CC(=O)c2ccccc21
2. COC(=O)C1C=CCC2C(=O)C=CC(=O)C12 (stereo not shown)
3. CC(C)(C)c1cc(O)ccc1O [Compound 117, tert-butylhydroquinone]

[reply]
[4.7, 23.7, 13.9]

---

Tested on: influenza-mediated syncytia formation, CV-1 cells
Conditions: Table 6
readout-type: syncytia, Table 6

# example entries with known answers
O=C1C=CC(=O)c2ccccc21 [Compound 90, 1,4-naphthoquinone]	morph
Oc1ccc(O)c2c1C1CCC2C1 [Compound 111, 3',6'-dihydroxybenzonorbornane]	morph
Cc1cc(O)c(C)cc1O [Compound 116, 2,5-dimethylhydroquinone]	morph
O=C1C=CC(=O)c2cc3ccccc3cc21 [Compound 114, 1,4-anthraquinone]	toxic

Could you now look at the following molecule, please?
The reported value for Cc1c(O)ccc(O)c1C [Compound 99, 2,3-dimethylhydroquinone] in terms of syncytia, Table 6 is toxic

---

System: hemagglutinin-mediated hemolysis of human red blood cells
Experiment: Hemolysis (HEM) assay
Assay type: cell-based, C22 influenza virus; human red blood cells
Details: unidentified influenza virus, Erythrocyte, 0.25 h, read-out: IC50 hemolysis
pIC50: −log10 of the molar value.
readout-type: pIC50

The value of pIC50 recorded for Cl.Nc1ccc(O)c2ccccc12 [Compound 121, 4-amino-1-naphthol hydrochloride] when tested on hemagglutinin-mediated hemolysis of human red blood cells reads ≤ 3.00

---

System: C22 virus in MDCK2 cells
Experiment: microbe, parasite or virus in culture
Settings: unidentified influenza virus, MDCK2, 15 h, read-out: infectivity % inhibition
Record form. Attribute: inhibition at 10 µM. Fill in for each entry.
Answers are plain numbers, in %.

Oc1ccc(O)c2ccccc12 [Compound 110, 1,4-dihydroxynaphthalene]	61.1
Cc1c(O)ccc(O)c1C [Compound 99, 2,3-dimethylhydroquinone]	35.9
O=C1C=C(O)C(=O)c2ccccc21 [Compound 120, 2-hydroxy-1,4-naphthoquinone]	4.7
Oc1ccc(O)c2c1C1CCC2C1 [Compound 111, 3',6'-dihydroxybenzonorbornane]	57.4
Oc1cccc2c(O)cccc12 [Compound 126, 1,5-naphthalenediol]	7.4

Would you be so kind as to report inhibition at 10 µM for each listed record?
1. O=C1C=CC(=O)c2cc3ccccc3cc21 [Compound 114, 1,4-anthraquinone]
2. COC(=O)C1C=CCC2C(=O)C=CC(=O)C12 (centres unmarked) [Compound 97]
3. O=C1C=CC(=O)c2ccccc21 [Compound 90, 1,4-naphthoquinone]
4. CC(C)(C)c1cc(O)ccc1O [Compound 117, tert-butylhydroquinone]
5. O=C(O)C1C=CCC2C(=O)C=CC(=O)C12 (centres unmarked) [Compound 91]

[reply]
1. 92.3
2. 92.6
3. 81.7
4. 22.2
5. 6.5

The reported value for Cc1cc(O)c(C)cc1O [Compound 116, 2,5-dimethylhydroquinone] in terms of inhibition at 10 µM is 42.8

---

Record form. Attribute: cytotoxicity at 15 h, 1 µM. Fill in for each entry.
Assay: in vitro
Details: dog, mdck
Answers are plain numbers, in %.

Oc1cccc2c(O)cccc12	-6.9
Oc1ccc(O)c2ccccc12 [Compound 110, 1,4-dihydroxynaphthalene]	5
CC(C)(C)c1cc(O)ccc1O [Compound 117, tert-butylhydroquinone]	-8.4

Would you be so kind as to report cytotoxicity at 15 h, 1 µM for each listed record?
1. O=C(O)C1C=CCC2C(=O)C=CC(=O)C12 (stereo not drawn)
2. COC(=O)C1C=CCC2C(=O)C=CC(=O)C12 (stereo not drawn)
3. Cc1c(O)ccc(O)c1C [Compound 99, 2,3-dimethylhydroquinone]

[reply]
1: -0.06; 2: -3.1; 3: -4.2
